Cited source: ChEMBL document CHEMBL1122873

TARGET: Estrogen receptor (Mus musculus) (UniProt O08537+P19785)
Sequence (O08537 whole entry, looked up): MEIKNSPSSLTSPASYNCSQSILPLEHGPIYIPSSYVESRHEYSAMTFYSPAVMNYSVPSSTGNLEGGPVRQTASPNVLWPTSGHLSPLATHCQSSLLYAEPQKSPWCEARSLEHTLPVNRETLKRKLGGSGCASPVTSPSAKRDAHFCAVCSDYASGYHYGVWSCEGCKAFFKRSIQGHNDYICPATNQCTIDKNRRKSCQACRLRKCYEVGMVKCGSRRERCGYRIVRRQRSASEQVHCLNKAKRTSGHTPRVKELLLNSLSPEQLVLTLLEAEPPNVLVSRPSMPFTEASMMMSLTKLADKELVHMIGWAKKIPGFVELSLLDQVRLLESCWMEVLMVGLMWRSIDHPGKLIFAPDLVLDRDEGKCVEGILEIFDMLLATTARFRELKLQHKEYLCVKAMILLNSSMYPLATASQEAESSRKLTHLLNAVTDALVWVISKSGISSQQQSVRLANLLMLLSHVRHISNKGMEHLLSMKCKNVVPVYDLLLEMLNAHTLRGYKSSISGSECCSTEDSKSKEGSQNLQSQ
Sequence (P19785 whole entry, looked up): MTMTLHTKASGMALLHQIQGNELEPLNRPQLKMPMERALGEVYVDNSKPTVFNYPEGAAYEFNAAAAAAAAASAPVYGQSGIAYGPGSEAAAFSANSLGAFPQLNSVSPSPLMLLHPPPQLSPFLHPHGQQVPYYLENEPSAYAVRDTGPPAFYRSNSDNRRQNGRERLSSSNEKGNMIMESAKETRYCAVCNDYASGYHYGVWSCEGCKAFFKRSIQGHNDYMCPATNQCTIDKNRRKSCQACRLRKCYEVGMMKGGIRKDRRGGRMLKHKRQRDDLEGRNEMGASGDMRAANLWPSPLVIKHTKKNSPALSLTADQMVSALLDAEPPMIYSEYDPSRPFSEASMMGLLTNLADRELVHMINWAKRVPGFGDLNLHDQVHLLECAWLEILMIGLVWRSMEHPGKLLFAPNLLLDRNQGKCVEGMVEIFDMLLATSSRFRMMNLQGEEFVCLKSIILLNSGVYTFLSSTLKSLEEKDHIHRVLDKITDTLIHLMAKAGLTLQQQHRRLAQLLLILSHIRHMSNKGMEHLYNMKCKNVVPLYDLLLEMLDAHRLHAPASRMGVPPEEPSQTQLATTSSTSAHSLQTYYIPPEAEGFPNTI
EXPERIMENT_NOTES: Antiestrogenic activity in immature mouse Uterine weight test at 25 ug dose
Assay type: functional
QUANTITY_MEASURED: inhibition (%)

- GIVEN_SMILES: "CC/C(=C(/c1ccccc1)c1cccc(OC(C)=O)c1)c1ccc(OC(C)=O)cc1"
  QUANTITY_MEASURED: "inhibition"
  UNIT_SPEC: "%"
  REPORTED_RESULT: 0

[1] CC/C(=C(\c1ccccc1)c1ccc(OC(C)=O)cc1)c1cccc(OC(C)=O)c1
[2] CC/C(=C(/c1ccc(OC(C)=O)cc1)c1cccc(OC(C)=O)c1)c1ccccc1
[3] CC/C(=C(\c1ccccc1)c1cccc(OC(C)=O)c1)c1ccc(OC(C)=O)cc1
# ascending order, key=inhibition Reply with the labels, ordered as the question asks.
1, 3, 2

----------
TARGET: Estrogen receptor (Mus musculus) (UniProt O08537+P19785)
EXPERIMENT_NOTES: Estrogenic activity in immature mouse using Uterine weight test at 50 ug dose
Type: functional
QUANTITY_MEASURED: Estrogenic effect

Solved cases below.
- GIVEN_SMILES: "CC/C(=C(\\c1ccc(OC(C)=O)cc1)c1cccc(OC(C)=O)c1)c1ccccc1"
  Estrogenic effect: 73
- GIVEN_SMILES: "CC/C(=C(/c1ccc(OC(C)=O)cc1)c1cccc(OC(C)=O)c1)c1ccccc1"
  Estrogenic effect: 66

[I] CC/C(=C(\c1ccccc1)c1cccc(OC(C)=O)c1)c1ccc(OC(C)=O)cc1
[II] CC/C(=C(/c1ccccc1)c1cccc(OC(C)=O)c1)c1ccc(OC(C)=O)cc1
Hey, between I and II which has a smaller measured Estrogenic effect? Which one? Tell me its label.
I
(I: 61, II: 92)

----------
TARGET: Estrogen receptor (Mus musculus) (UniProt O08537+P19785)
EXPERIMENT_NOTES: Antiestrogenic activity in immature mouse Uterine weight test at 5 ug dose
Type: functional
QUANTITY_MEASURED: inhibition (%)

[I] CC/C(=C(\c1ccccc1)c1ccc(OC(C)=O)cc1)c1cccc(OC(C)=O)c1
[II] CC/C(=C(/c1ccc(OC(C)=O)cc1)c1cccc(OC(C)=O)c1)c1ccccc1
Hey, between I and II which has a smaller measured inhibition? Which one? Tell me its label.
I
(I: 0%, II: 28%)

[P] CCC(=C(c1ccc(OC(C)=O)cc1)c1ccc(OC(C)=O)cc1)c1ccccc1
[Q] CC/C(=C(\c1ccc(OC(C)=O)cc1)c1cccc(OC(C)=O)c1)c1ccccc1
Higher inhibition: P or Q ? Which one? Tell me its label.
Q
(Q: 41%, P: 0%)

[P] CC/C(=C(\c1ccccc1)c1cccc(OC(C)=O)c1)c1ccc(OC(C)=O)cc1
[Q] CC/C(=C(/c1ccccc1)c1cccc(OC(C)=O)c1)c1ccc(OC(C)=O)cc1
Hey, between P and Q which has a smaller measured inhibition? Which one? Tell me its label.
Q
(Q: 0%, P: 45%)

----------
TARGET: Estrogen receptor (Mus musculus) (UniProt O08537+P19785)
EXPERIMENT_NOTES: Estrogenic activity in immature mouse using Uterine weight test at 1 ug dose
Format: functional
QUANTITY_MEASURED: Estrogenic effect

[a] CC/C(=C(/c1ccccc1)c1cccc(OC(C)=O)c1)c1ccc(OC(C)=O)cc1
[b] CCC(=C(c1ccc(OC(C)=O)cc1)c1ccc(OC(C)=O)cc1)c1ccccc1
[c] CC/C(=C(\c1ccccc1)c1cccc(OC(C)=O)c1)c1ccc(OC(C)=O)cc1
List the items above again, this time ordered by increasing Estrogenic effect. Reply with the labels, ordered as the question asks.
c, a, b
(c: 0, a: 18, b: 37)

[A] CC/C(=C(/c1ccccc1)c1ccc(OC(C)=O)cc1)c1cccc(OC(C)=O)c1
[B] CC/C(=C(/c1ccc(OC(C)=O)cc1)c1cccc(OC(C)=O)c1)c1ccccc1
Higher Estrogenic effect: A or B ? Which one? Tell me its label.
A
(A: 114, B: 8)

----------
TARGET: Estrogen receptor (Bos taurus) (UniProt Q9XSB5+P49884)
EXPERIMENT_NOTES: Relative displacement of [3H]estradiol from calf uterine estrogen receptor
Assay type: protein assay
QUANTITY_MEASURED: RBA (%)

Solved cases below.
- GIVEN_SMILES: "CC/C(=C(\\c1ccccc1)c1cccc(OC(C)=O)c1)c1ccc(OC(C)=O)cc1"
  TARGET: "Estrogen receptor (Bos taurus) (UniProt Q9XSB5+P49884)"
  QUANTITY_MEASURED: "RBA"
  UNIT_SPEC: "%"
  REPORTED_RESULT: 1.8
- GIVEN_SMILES: "CC/C(=C(/c1ccccc1)c1ccc(OC(C)=O)cc1)c1cccc(OC(C)=O)c1"
  TARGET: "Estrogen receptor (Bos taurus) (UniProt Q9XSB5+P49884)"
  QUANTITY_MEASURED: "RBA"
  UNIT_SPEC: "%"
  REPORTED_RESULT: 11.1
- GIVEN_SMILES: "CC/C(=C(/c1ccc(OC(C)=O)cc1)c1cccc(OC(C)=O)c1)c1ccccc1"
  TARGET: "Estrogen receptor (Bos taurus) (UniProt Q9XSB5+P49884)"
  QUANTITY_MEASURED: "RBA"
  UNIT_SPEC: "%"
  REPORTED_RESULT: 3.5

[I] CC/C(=C(/c1ccccc1)c1cccc(OC(C)=O)c1)c1ccc(OC(C)=O)cc1
[II] CC/C(=C(\c1ccc(OC(C)=O)cc1)c1cccc(OC(C)=O)c1)c1ccccc1
Hey, between I and II which has a smaller measured RBA? Which one? Tell me its label.
I
(I: 4.2%, II: 8.7%)

----------
TARGET: Estrogen receptor (Mus musculus) (UniProt O08537+P19785)
EXPERIMENT_NOTES: In vivo uterotrophic effect in hormone-dependent MXT mammary tumor bearing BDF1 mice at 8.0 mg/kg dose
Format: functional, organism-based
Parameters: dose 8 mg/kg
QUANTITY_MEASURED: T/C (%)

- GIVEN_SMILES: "CCC(=C(c1ccc(OC(C)=O)cc1)c1ccc(OC(C)=O)cc1)c1ccccc1"
  QUANTITY_MEASURED: "T/C"
  REPORTED_RESULT: 110

[A] CC/C(=C(\c1ccc(OC(C)=O)cc1)c1cccc(OC(C)=O)c1)c1ccccc1
[B] CC/C(=C(/c1ccccc1)c1ccc(OC(C)=O)cc1)c1cccc(OC(C)=O)c1
Higher T/C: A or B ? Which one? Tell me its label.
B
(B: 205%, A: 116%)
